# Test System: human FPR2 (Homo sapiens)
# Sequence (P25090 whole entry): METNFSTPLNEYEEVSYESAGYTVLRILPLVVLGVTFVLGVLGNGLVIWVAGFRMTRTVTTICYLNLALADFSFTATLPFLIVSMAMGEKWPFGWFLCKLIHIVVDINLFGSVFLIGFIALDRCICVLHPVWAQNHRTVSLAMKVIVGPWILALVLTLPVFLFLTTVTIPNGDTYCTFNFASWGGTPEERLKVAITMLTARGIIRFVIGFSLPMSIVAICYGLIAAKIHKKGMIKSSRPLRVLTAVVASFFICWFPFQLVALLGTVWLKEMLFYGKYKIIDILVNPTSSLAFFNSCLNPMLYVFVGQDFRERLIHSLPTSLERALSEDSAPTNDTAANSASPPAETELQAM
# Assay Procedure: FPR2 cyclic adenosine monophosphate (cAMP) assay
# Conditions: CHO cells overexpressing human FPR2; forskolin 5 μM; inhibition of cAMP production; HTRF; read-out: hFPR2 cAMP2 EC50
Experimental Readout: EC50 (nM)

Look over these answered cases.
INSERT INTO assay_data (item_smiles, test_system, experimental_readout, data_value) VALUES
  ('COc1cc(F)c(-c2c(NC(=O)c3ccc(OC(F)F)cc3)c(=O)n(-c3cccc(F)c3Cl)n2C)c(F)c1', 'human FPR2 (Homo sapiens)', 'EC50', 25),
  ('COc1cc(F)c(-c2c(NC(=O)c3ccc(OC(F)F)cc3)c(=O)n(-c3nc(C4CCC4)ccc3C#N)n2C)c(F)c1', 'human FPR2 (Homo sapiens)', 'EC50', 2),
  ('COc1cc(F)c(-c2c(NC(=O)c3ccc(OC(F)F)cc3)c(=O)n(-c3cccc(N4CCN(CC5CC5)CC4)n3)n2C)c(F)c1', 'human FPR2 (Homo sapiens)', 'EC50', 3),
  ('COc1cc(F)c(-c2c(NC(=O)c3ccc(OC(F)F)cc3)c(=O)n(-c3cc(C)cc(C)c3)n2C)c(F)c1', 'human FPR2 (Homo sapiens)', 'EC50', 11),
  ('[2H]C([2H])([2H])Oc1cc(F)c(-c2c(NC(=O)c3ccc(OC(F)(F)F)cc3)c(=O)n(-c3cccc(C(C)(C)O)n3)n2C)c(F)c1', 'human FPR2 (Homo sapiens)', 'EC50', 8);

[A] COc1cc(F)c(-c2c(NC(=O)c3ccc(OC(F)F)cc3)c(=O)n(-c3cccc(C#N)c3)n2C)c(F)c1
[B] COc1ccc(-c2c(NC(=O)c3ccc(OC(F)F)cc3)c(=O)n(-c3ncccc3Cl)n2C)cc1
Task: Would you let me know which has the greater EC50 value, A or B ? Please indicate the selected item by its label.
Result: B
(B: 20 nM, A: 9 nM)
